Just for reference, paper PMC11951083 is where these values come from.

- ASSAYED SYSTEM: M1 (h) (Homo sapiens)
- Sequence (P11229 whole entry): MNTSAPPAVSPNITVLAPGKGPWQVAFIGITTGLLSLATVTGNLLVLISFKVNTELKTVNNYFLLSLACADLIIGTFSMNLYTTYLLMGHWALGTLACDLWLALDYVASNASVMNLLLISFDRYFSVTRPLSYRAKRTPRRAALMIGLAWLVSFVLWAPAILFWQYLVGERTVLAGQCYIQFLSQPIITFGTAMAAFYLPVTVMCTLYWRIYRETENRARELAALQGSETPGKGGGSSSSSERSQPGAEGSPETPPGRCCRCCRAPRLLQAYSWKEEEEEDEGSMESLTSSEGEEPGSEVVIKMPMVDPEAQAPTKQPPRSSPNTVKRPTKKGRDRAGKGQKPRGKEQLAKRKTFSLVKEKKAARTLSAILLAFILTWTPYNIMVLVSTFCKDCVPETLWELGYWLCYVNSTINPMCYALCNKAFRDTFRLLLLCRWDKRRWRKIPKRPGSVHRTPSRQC
- ASSAY REMARKS: M1 (h) (antagonist radioligand)
- CONDITION: read-out: Inhibition M1 (h) (antagonist radioligand)
Outcome label depends on inhibition at 10 µM relative to 10%: at/above gives true (1), below gives false (0).

Q: Quick check, inhibition at 10 µM >= 10%? O=C1CO[C@H]2CCN(C(=O)N3CC4(CC(CC5=C6C=CC(c7ccc[nH]7)=[N+]6[B-](F)(F)n6cccc65)C4)C3)C[C@H]2N1 [Compound 4a]
Result: false (0)

Q: Do the same for O=C(OC(C(F)(F)F)C(F)(F)F)N1CC2(CC(CC3=C4C=CC=[N+]4[B-](F)(F)n4cccc43)C2)C1 [Compound 2] please
Result: true (1)

Q: Do the same for O=C(N1CC2(CC(CC3=C4C=CC=[N+]4[B-](F)(F)n4cccc43)C2)C1)N1CC2(CC(n3cnc(C4CC4)n3)C2)C1 [Compound 5] please
Result: true (1)

Q: Do the same for O=C(OC(C(F)(F)F)C(F)(F)F)N1CC2(CC(CC3=C4C=CC(c5ccc[nH]5)=[N+]4[B-](F)(F)n4cccc43)C2)C1 [Compound 2a] please
Result: false (0)

Q: Do the same for O=C(O[C@H](CO)C(F)(F)F)N1CC2(CC(CC3=C4C=CC=[N+]4[B-](F)(F)n4cccc43)C2)C1 [Compound 1] please
Result: true (1)

---

- ASSAY REMARKS: High throughput kinetic solubility measurement
- Format: physicochemical
- CONDITION: phosphate buffer, pH 6.5, aqueous buffer, kinetic from dmso stock
RECORDED ENDPOINT: solubility kinetic (µg/mL)
Answer format: numeric, µg/mL implied, no suffix.

Q: solubility kinetic for O=C1CO[C@H]2CCN(C(=O)N3CC4(CC(CC5=C6C=CC=[N+]6[B-](F)(F)n6cccc65)C4)C3)C[C@H]2N1 [Compound 4] ?
Result: 112

Q: Do the same for O=C(O[C@H](CO)C(F)(F)F)N1CC2(CC(CC3=C4C=CC=[N+]4[B-](F)(F)n4cccc43)C2)C1 [Compound 1] please
Result: 19

Q: Do the same for O=C(N1CC2(CC(CC3=C4C=CC=[N+]4[B-](F)(F)n4cccc43)C2)C1)N1CC2(CC(n3cnc(C4CC4)n3)C2)C1 [Compound 5] please
Result: 46

Q: Do the same for O=C1NC2(CO1)CN(C(=O)N1CC3(CCC(CC4=C5C=CC=[N+]5[B-](F)(F)n5cccc54)CC3)C1)C2 [Compound 3] please
Result: 139

---

- ASSAYED SYSTEM: AT1 (h) (Homo sapiens, UniProt P30556)
- Sequence (P30556 1-359): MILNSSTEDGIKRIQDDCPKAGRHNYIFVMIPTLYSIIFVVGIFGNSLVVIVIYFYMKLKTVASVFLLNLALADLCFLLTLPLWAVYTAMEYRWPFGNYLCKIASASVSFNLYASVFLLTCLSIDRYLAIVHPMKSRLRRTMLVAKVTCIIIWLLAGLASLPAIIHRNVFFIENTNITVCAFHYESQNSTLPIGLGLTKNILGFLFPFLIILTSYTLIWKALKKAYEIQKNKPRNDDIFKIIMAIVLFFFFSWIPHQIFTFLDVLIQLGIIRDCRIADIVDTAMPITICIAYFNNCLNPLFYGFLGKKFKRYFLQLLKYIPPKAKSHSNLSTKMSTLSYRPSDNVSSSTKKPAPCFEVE
- ASSAY REMARKS: AT1 (h) (antagonist radioligand)
- CONDITION: read-out: Inhibition AT1 (h) (antagonist radioligand)
For each record, write down the corresponding inhibition at 10 µM.

Q: inhibition at 10 µM for O=C(OC(C(F)(F)F)C(F)(F)F)N1CC2(CC(CC3=C4C=CC(c5ccc[nH]5)=[N+]4[B-](F)(F)n4cccc43)C2)C1 ?
Result: 2.5%

Q: Do the same for O=C(O[C@H](CO)C(F)(F)F)N1CC2(CC(CC3=C4C=CC=[N+]4[B-](F)(F)n4cccc43)C2)C1 please
Result: -4.3%

Q: Do the same for O=C(OC(C(F)(F)F)C(F)(F)F)N1CC2(CC(CC3=C4C=CC=[N+]4[B-](F)(F)n4cccc43)C2)C1 please
Result: -1.2%

Q: Do the same for O=C(N1CC2(CC(CC3=C4C=CC=[N+]4[B-](F)(F)n4cccc43)C2)C1)N1CC2(CC(n3cnc(C4CC4)n3)C2)C1 please
Result: 11.1%

Q: Do the same for O=C1CO[C@H]2CCN(C(=O)N3CC4(CC(CC5=C6C=CC(c7ccc[nH]7)=[N+]6[B-](F)(F)n6cccc65)C4)C3)C[C@H]2N1 please
Result: -12.5%

---

- ASSAYED SYSTEM: NanoLuc luciferase MAGL fusion protein (Homo sapiens, UniProt Q99685)
- Sequence (Q99685 whole entry, the tested form may be a part): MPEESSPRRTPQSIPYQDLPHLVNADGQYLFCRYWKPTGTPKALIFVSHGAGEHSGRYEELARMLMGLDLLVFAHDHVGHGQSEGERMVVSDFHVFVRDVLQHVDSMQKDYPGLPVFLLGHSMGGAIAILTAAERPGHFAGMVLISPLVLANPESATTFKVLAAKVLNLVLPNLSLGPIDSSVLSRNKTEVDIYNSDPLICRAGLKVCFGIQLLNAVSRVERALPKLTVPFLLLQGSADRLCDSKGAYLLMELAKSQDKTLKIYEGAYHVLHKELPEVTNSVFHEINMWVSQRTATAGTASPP
- ASSAY REMARKS: Cellular MAGL NanoBRET target engagement assay in live HEK293 cells
- Type: cell-based
RECORDED ENDPOINT: pIC50
Quick note: pIC50 values are minus log10 of concentrations in mol/L.

Q: pIC50 for O=C(N1CC2(CC(CC3=C4C=CC=[N+]4[B-](F)(F)n4cccc43)C2)C1)N1CC2(CC(n3cnc(C4CC4)n3)C2)C1 ?
Result: 7.07

---

- ASSAYED SYSTEM: mMAGL (Mus musculus, UniProt O35678)
- Sequence (O35678 whole entry): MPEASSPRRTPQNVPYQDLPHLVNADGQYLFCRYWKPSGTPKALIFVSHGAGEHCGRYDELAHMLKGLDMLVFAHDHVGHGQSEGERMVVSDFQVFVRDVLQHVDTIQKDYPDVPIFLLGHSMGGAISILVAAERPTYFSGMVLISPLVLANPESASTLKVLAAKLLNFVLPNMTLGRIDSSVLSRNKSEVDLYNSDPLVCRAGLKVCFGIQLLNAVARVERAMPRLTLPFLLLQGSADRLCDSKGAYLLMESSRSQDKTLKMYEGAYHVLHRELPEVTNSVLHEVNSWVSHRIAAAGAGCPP
- ASSAY REMARKS: Native MS (RapidFire) 2-AG substrate assay, purified mouse MAGL
- Assay type: biochemical
- CONDITION: purified mouse MAGL, native MS substrate assay; read-out: IC50 mMAGL
RECORDED ENDPOINT: pIC50
Quick note: pIC50 values are minus log10 of concentrations in mol/L.

Q: pIC50 for O=C(N1CC2(CC(CC3=C4C=CC=[N+]4[B-](F)(F)n4cccc43)C2)C1)N1CC2(CC(n3cnc(C4CC4)n3)C2)C1 ?
Result: 8.99

Q: Do the same for O=C1CO[C@H]2CCN(C(=O)N3CC4(CC(CC5=C6C=CC=[N+]6[B-](F)(F)n6cccc65)C4)C3)C[C@H]2N1 please
Result: 8.88

Q: Do the same for O=C(O[C@H](CO)C(F)(F)F)N1CC2(CC(CC3=C4C=CC=[N+]4[B-](F)(F)n4cccc43)C2)C1 please
Result: 9.68

---

- ASSAYED SYSTEM: UniProtKB P24941
- ASSAY REMARKS: CDK2 (h) (cycA)
- CONDITION: read-out: Inhibition CDK2 (h) (cycA)
For each record, write down the corresponding inhibition at 10 µM.
Reply with a number, then the unit it belongs to.

Q: inhibition at 10 µM for O=C(OC(C(F)(F)F)C(F)(F)F)N1CC2(CC(CC3=C4C=CC(c5ccc[nH]5)=[N+]4[B-](F)(F)n4cccc43)C2)C1 ?
Result: -5.8%

Q: Do the same for O=C(N1CC2(CC(CC3=C4C=CC=[N+]4[B-](F)(F)n4cccc43)C2)C1)N1CC2(CC(n3cnc(C4CC4)n3)C2)C1 please
Result: 6.5%

Q: Do the same for O=C(OC(C(F)(F)F)C(F)(F)F)N1CC2(CC(CC3=C4C=CC=[N+]4[B-](F)(F)n4cccc43)C2)C1 please
Result: 6.3%

Q: Do the same for O=C(O[C@H](CO)C(F)(F)F)N1CC2(CC(CC3=C4C=CC=[N+]4[B-](F)(F)n4cccc43)C2)C1 please
Result: 7.8%

Q: Do the same for O=C1CO[C@H]2CCN(C(=O)N3CC4(CC(CC5=C6C=CC(c7ccc[nH]7)=[N+]6[B-](F)(F)n6cccc65)C4)C3)C[C@H]2N1 please
Result: -8.3%

---

- ASSAYED SYSTEM: 5-HT transporter (h) (Homo sapiens)
- Sequence (P31645 whole entry): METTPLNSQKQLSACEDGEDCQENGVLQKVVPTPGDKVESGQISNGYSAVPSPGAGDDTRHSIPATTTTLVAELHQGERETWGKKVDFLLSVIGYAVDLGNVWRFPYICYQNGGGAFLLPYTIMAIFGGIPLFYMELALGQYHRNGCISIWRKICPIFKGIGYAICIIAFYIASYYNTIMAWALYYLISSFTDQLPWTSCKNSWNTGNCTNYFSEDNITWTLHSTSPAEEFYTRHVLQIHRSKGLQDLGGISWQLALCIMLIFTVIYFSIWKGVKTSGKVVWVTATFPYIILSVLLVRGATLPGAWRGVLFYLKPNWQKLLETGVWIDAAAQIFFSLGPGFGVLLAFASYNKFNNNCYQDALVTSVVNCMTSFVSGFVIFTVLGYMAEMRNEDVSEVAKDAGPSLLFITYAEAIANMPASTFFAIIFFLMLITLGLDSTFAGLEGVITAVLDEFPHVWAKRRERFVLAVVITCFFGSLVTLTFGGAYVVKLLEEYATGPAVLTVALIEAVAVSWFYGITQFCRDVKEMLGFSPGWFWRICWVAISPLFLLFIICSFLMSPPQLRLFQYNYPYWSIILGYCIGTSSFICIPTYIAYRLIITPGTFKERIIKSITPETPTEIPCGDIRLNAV
- ASSAY REMARKS: 5-HT transporter (h) (antagonist radioligand)
- CONDITION: read-out: Inhibition 5-HT transporter (h) (antagonist radioligand)
RECORDED ENDPOINT: inhibition at 10 µM (%)
Answer format: numeric, % implied, no suffix.

Q: inhibition at 10 µM for O=C(O[C@H](CO)C(F)(F)F)N1CC2(CC(CC3=C4C=CC=[N+]4[B-](F)(F)n4cccc43)C2)C1 ?
Result: 13

Q: Do the same for O=C(OC(C(F)(F)F)C(F)(F)F)N1CC2(CC(CC3=C4C=CC=[N+]4[B-](F)(F)n4cccc43)C2)C1 please
Result: -4.8

Q: Do the same for O=C1CO[C@H]2CCN(C(=O)N3CC4(CC(CC5=C6C=CC(c7ccc[nH]7)=[N+]6[B-](F)(F)n6cccc65)C4)C3)C[C@H]2N1 please
Result: -9.6

Q: Do the same for O=C(OC(C(F)(F)F)C(F)(F)F)N1CC2(CC(CC3=C4C=CC(c5ccc[nH]5)=[N+]4[B-](F)(F)n4cccc43)C2)C1 please
Result: -12.9

Q: Do the same for O=C(N1CC2(CC(CC3=C4C=CC=[N+]4[B-](F)(F)n4cccc43)C2)C1)N1CC2(CC(n3cnc(C4CC4)n3)C2)C1 please
Result: 56.5
